Tested on: T47D
Experiment: NCI tumour cell line growth inhibition, 48 h
Calls of active or inactive are those of the source. No stated cut-off is given here; in the data, active = GI50 up to about 1.1 µM and inactive = higher.
Possible outcomes: active, inactive

1. O=C1NCN(c2ccccc2)C12CCN(CC1COc3ccccc3O1)CC2 (stereo not given)	inactive
2. Clc1ccc(CNc2nc(Cl)c3nc[nH]c3n2)cc1Cl	inactive
3. CCOC(=O)C12OC(CCC1=O)C(C(=O)OC)=C2C(=O)OC (stereo not given)	inactive
4. CCOC(=O)c1[nH]c2cccc3c2c1CC(Br)C3=O (stereo not given)	inactive
5. C=CC(C)CCC(C/C=C(\C)CCC=C(C)C)C(=C)CCCC(C)C (stereo not given)	inactive
6. O=C(O)c1nc2ccccc2nc1NCc1ccc(F)cc1	inactive
7. C=C1C(=O)O[C@H]2C[C@@H]1C(=O)CC(C)CCCC(C)=CCC[C@@]2(C)O (stereo not given in full)	inactive
8. NS(=O)(=O)c1ccc(/N=N/c2nc3[nH]cnc(=S)c3[nH]2)cc1	inactive
9. CC(=O)O[C@@H]1CO[C@H]2O[C@H]3[C@@H](C(C=O)=C[C@H](O)[C@@H]4C5=C(C(C)C)CC[C@]5(C)CC[C@@]34C)[C@@]2(O)C1=O	active
10. CC(C)(C)[Si](C)(C)OCC1OC(n2cnc3c(N)ncnc32)CC1O (stereo not given)	inactive
11. C#CCOCC12C=CC(O1)C1C(=O)OCC12 (stereo not given)	inactive
12. CC(C)(C)N1CC1CNC(=O)C(=O)NCC1CN1C(C)(C)C (stereo not given)	inactive
13. CN(C)Cc1cc(C(=O)/C=C/c2ccc(O)cc2)cc(CN(C)C)c1O	inactive
14. CCCCCCCCCCCCCCCCOCC(COP(=O)([O-])OCC[n+]1ccc(N(C)C)cc1)OCC (stereo not given)	inactive
15. CCCCC(=O)c1c(O)nc2sccn2c1=O	inactive
16. C#C[C@]1(O)CC[C@H]2[C@@H]3CCC4=C/C(=N/OC(=O)c5cccc6c(=O)c7ccccc7[nH]c56)CCC4[C@H]3CC[C@@]21CC (stereo not given in full)	inactive
17. COC1(OC)N=C(N)C2(C#N)/C(=N/N(C)C)CC(C)C12C#N (stereo not given)	inactive
18. Cc1cc(C)nc(NS(=O)(=O)c2ccc(Nc3c4ccccc4nc4ccc(C(=O)Nc5ccc(S(N)(=O)=O)cc5)cc34)cc2)n1	inactive
19. Nc1nc(Cl)nc2c1ncn2C1CCC(CO)O1 (stereo not given)	inactive
20. Cc1cc(N(CCCl)CCCl)ccc1/C=N/NC(=O)Cc1cc(=O)oc2cc(O)ccc12	inactive
